Provenance of the data: paper PMC9482650

Molecular target: T1, DVL3, Q92997
T1 sequence (Q92997 244-331, limits assumed, looked up): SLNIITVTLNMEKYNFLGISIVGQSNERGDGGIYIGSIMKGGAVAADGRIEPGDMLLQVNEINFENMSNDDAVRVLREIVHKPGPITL
Test: holdup assay
Set-up: key: below the threshold = too weak to quantify, mostly under pKd 3.1 to 4
Settings: plain residues with an end cap or a label only (N-terminal biotin on a linker: ado-ado)
experimental readout: pKd

>>> result("SAGADSETHC [SLCO1B1, Q9Y6L6]")
"below the threshold"
>>> result("TKEIPNCTSV [SORCS3, Q9UPU3]")
"below the threshold"
>>> result("GSQSQVETEA [FKBP4, Q02790]")
"below the threshold"
>>> result("SQPLLVHDDV [KIT, P10721]")
"below the threshold"

Fill in: pKd of LVEEEEPMNL [HDAC7, Q8WUI4] is ___
below the threshold

Fill in: pKd of PKSNSSKEYV [CLDN7, O95471] is ___
below the threshold
